Target: Human Cbl-b (residues 40-426) (Homo sapiens (Human))
Sequence (Q13191 40-426): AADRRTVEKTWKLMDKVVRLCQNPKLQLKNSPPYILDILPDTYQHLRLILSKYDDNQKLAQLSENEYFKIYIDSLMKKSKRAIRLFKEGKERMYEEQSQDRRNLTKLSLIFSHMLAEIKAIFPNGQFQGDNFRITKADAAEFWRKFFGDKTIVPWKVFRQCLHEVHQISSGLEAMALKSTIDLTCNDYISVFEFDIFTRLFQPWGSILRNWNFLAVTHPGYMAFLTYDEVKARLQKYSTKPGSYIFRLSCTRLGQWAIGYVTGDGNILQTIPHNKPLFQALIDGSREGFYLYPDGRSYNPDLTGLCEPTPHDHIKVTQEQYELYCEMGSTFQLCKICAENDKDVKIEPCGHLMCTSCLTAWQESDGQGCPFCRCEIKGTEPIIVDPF
Experiment: Cbl-b SPR assay
Type: binding
Details: C-cbl SPR Kd vs Cbl-b SPR Kd
attribute measured: Fold of selectivity (×)

1: Cn1cnnc1[C@@](C)(O)c1cccc(N2Cc3c(cc(CNC4(C)CCC4)cc3C(F)(F)F)C2=O)c1 [Compound 306]
2: Cn1cnnc1[C@]1(c2cccc(N3Cc4c(cc(CNC5(C)CCC5)cc4C(F)(F)F)C3=O)c2)C[C@]2(CCCO2)C1 [Compound 340]
For this pair, 1 and 2 , which shows a numerically higher Fold of selectivity? Returns: label corresponding to the selected item.
2

a: CC(C)[C@H]1CN(C)CCN1Cc1cc2c(c(C(F)(F)F)c1)CN(c1cccc([C@]3(c4nncn4C)C[C@@H](C#N)C3)c1)C2=O (single isomer, unassigned) [Compound 64]
b: Cn1cnnc1C(c1cccc(N2Cc3c(cc(CNC4(C)CCC4)cc3C(F)(F)F)C2=O)c1)[C@H]1C[C@@H](CC#N)C1 (single isomer, unassigned) [Compound 362]
c: CO[C@H]1C[C@](c2cccc(N3Cc4c(cc(CNCC5(O)CC5)cc4C(F)(F)F)C3=O)c2)(c2nncn2C)C1 [Compound 473]
d: CC[C@](F)(c1cccc(N2Cc3c(cc(CNC4(C)CCC4)cc3C(F)(F)F)C2=O)c1)c1nncn1C (single isomer, unassigned) [Compound 393]
Order the entries by their reported Fold of selectivity, beginning at the minimum. Returns: the labels arranged in the requested order.
d, a, c, b
